Listed here: items and their measured Bliss excess.
tested on: KYAE-1 (Esophageal Adenocarcinoma); experiment: Bliss excess, mean over the matrix (fraction); higher = more synergy;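 further: after 72 h of two-drug dosing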
I only need the number, thanks.

[[record]]
compound = "COc1cccc(OCCCN)c1-c1cc(Nc2cnc(C#N)cn2)n[nH]1 [Prexasertib] + O=C(c1cc(Cc2n[nH]c(=O)c3ccccc23)ccc1F)N1CCN(C(=O)C2CC2)CC1 [Olaparib] (first compound max 1 µM, 7x7, partner max 10 µM)"
observed_property = "Bliss excess"
endpoint_value = 0.0116

[[record]]
compound = "C[C@@H](Nc1cc(F)cc(F)c1)c1cc(C(=O)N(C)C)cc2c(=O)cc(N3CCOCC3)oc12 [AZD8186] + C1CN(CCC1(C(=O)N[C@@H](CCO)C2=CC=C(C=C2)Cl)N)C3=NC=NC4=C3C=CN4 [AZD5363] (first compound max 10 µM, 7x7, partner max 10 µM)"
observed_property = "Bliss excess"
endpoint_value = -0.0101


Moving on to the next compound.
Exercise: Item under review: O=C(c1cc(Cc2n[nH]c(=O)c3ccccc23)ccc1F)N1CCN(C(=O)C2CC2)CC1 [Olaparib] + Cc1c2c(nn1C)CSCc1cc(n(C)n1)CSc1cc(c3ccccc3c1)OCCCc1c(C(=O)O)n(C)c3c-2c(Cl)ccc13 [AZD5991] (first compound max 10 µM, 7x7, partner max 1 µM) . Reported Bliss excess?
Solution: 0.0031
